Data provenance is PubChem BioAssay (NCI).

assay_details: NCI Yeast Anticancer Drug Screen. Data for the wt2 strain (AID 169)
applied_conditions: S. cerevisiae wt2 strain growth inhibition; at 1.2 µM
The panel holds about 79,000 compounds, 15% with a hit somewhere; the sample as a whole holds those more often. The source made the active and inactive calls. Cut-off read from the data, not from the text of the source: active = growth inhibition above about 70%; inactive = the rest.
Write down one outcome, taken from yes = active, no = inactive

Prompt line: Field: outcome | Entry: O=C1C(CCSc2ccccc2)C(=O)N(c2ccccc2)C1c1ccccc1 (stereo not drawn)
Response line: no

Prompt line: Field: outcome | Entry: `COC(=O)C(=O)CC(=O)c1cccc(OC)c1`
Response line: no

Prompt line: Field: outcome | Entry: `O=C1C(=O)N(c2ccccc2)[C@@]2(c3ccccc3)C(=Nc3ccccc3)OC(c3ccccc3)=C12`
Response line: no

Prompt line: Field: outcome | Entry: `O=C1C[C@H]2[C@H](c3ccc(Br)cc3)[C@H]3C(=O)c4ccccc4NC(=O)[C@@H]3[C@@]2(O)c2ccccc2N1`
Response line: no

Prompt line: Field: outcome | Entry: `Cc1ccc(S(=O)(=O)Nc2cccc3cccnc23)cc1`
Response line: no

Prompt line: Field: outcome | Entry: `COc1cc2oc3ccccc3c(=O)c2cc1CSc1ccccc1N`
Response line: no

Prompt line: Field: outcome | Entry: N#CSCC1COc2ccccc2O1 (stereo not drawn)
Response line: no

Prompt line: Field: outcome | Entry: `COc1ccc2nc3cccc([N+](=O)[O-])c3c(NCCNCCN(C)C)c2c1`
Response line: no

Prompt line: Field: outcome | Entry: `O=[N+]([O-])c1ccc(/C=C\c2ccc3c(c2)OCO3)c([N+](=O)[O-])c1`
Response line: no

Prompt line: Field: outcome | Entry: `CS(=O)(=O)O.[Ag]`
Response line: no

Prompt line: Field: outcome | Entry: `O=C(Nn1c(-c2ccccc2)nc2ccccc2c1=O)c1ccc(CS)cc1`
Response line: no

Prompt line: Field: outcome | Entry: `CC1=NN(C(=O)c2ccccc2O)C(=O)/C1=C/c1ccco1`
Response line: no

Prompt line: Field: outcome | Entry: `CCN(CC)CCC(=O)Nc1ccc2sc3ccccc3c(=O)c2n1`
Response line: no

Prompt line: Field: outcome | Entry: `Cc1ccccc1NC(=O)c1c(C)oc2c1C(=O)c1ccccc1C2=O`
Response line: no

Prompt line: Field: outcome | Entry: Cc1cccc(C)c1NC(=O)C(C#N)C1=C(Cl)C(=O)c2ccccc2C1=O (stereo not drawn)
Response line: no

Prompt line: Field: outcome | Entry: `CCOC(=O)C(Cc1c2ccccc2cc2ccccc12)(NC(C)=O)C(=O)OCC`
Response line: no

Prompt line: Field: outcome | Entry: `COc1cc(C(=O)C=O)cc(OC)c1OC`
Response line: no

Prompt line: Field: outcome | Entry: `NC(=S)N1N=C2c3ccccc3CC[C@H]2[C@@H]1c1ccc(Cl)cc1`
Response line: no

Prompt line: Field: outcome | Entry: O=C1NC(c2cccc(OCc3ccccc3)c2)Nc2ccccc21 (stereo not drawn)
Response line: no

Prompt line: Field: outcome | Entry: `CC/C(=C(\c1ccccc1)c1ccc(OCC[N+](C)(C)C)cc1)c1ccccc1`
Response line: no

Prompt line: Field: outcome | Entry: `S=C(NCc1ccccn1)N/N=C/c1ccccn1`
Response line: yes

Prompt line: Field: outcome | Entry: `O=C(Oc1ccc([N+](=O)[O-])cc1)c1ccc([N+](=O)[O-])cc1`
Response line: no

Prompt line: Field: outcome | Entry: `Cc1ccc(C)c(C(=N)c2ccccc2Cc2ccccc2)c1`
Response line: no
